- Tested on: Zymoseptoria tritici
- experimental.details: Test E: wheat leaf blotch, preventive spray on wheat seedlings
- condition.info: 10 ppm; wheat leaf blotch; 100 = 100% disease control, 0 = no control
The following compounds are listed with their measured Test E rating (% disease control) values.
outcome.measure: Test E rating (% disease control) (%)

compound	result.unit	result.value
CC(C)(C)C(O)(Cn1cncn1)C1=NOC(COc2ccc(F)cc2)C1 (single isomer, unassigned) [Compound 79]	%	21
OC(Cn1cncn1)(C1=NOC(Cn2ccc(-c3ccc(C(F)(F)F)cc3)n2)C1)c1ccc(Cl)cc1 (single isomer, unassigned) [Compound 67]	%	0
OC(Cn1cncn1)(C1=NOC(c2cnccn2)C1)c1ccc(Cl)cc1 (single isomer, unassigned)	%	0
OC(Cn1cncn1)(C1=NOC(c2ccc(Br)cc2)C1)c1ccc(Cl)cc1 (single isomer, unassigned) [Compound 178]	%	91
OC(Cn1cncn1)(C1=NOC(COc2ccc(C(F)(F)F)cc2)C1)c1ccc(Cl)cc1 (single isomer, unassigned) [Compound 64]	%	2
OC(Cn1cncn1)(C1=NOC(Cn2cc(Br)cn2)C1)c1ccc(Cl)cc1 (single isomer, unassigned) [Compound 38]	%	1
